Assay: Oral bioavailability in F344/DuCrlCrlj rat at 0.1 mg/kg administered via gavage by LC-MS/MS analysis
Assay type: ADME, organism-based
Design: dosed compound name [14C]Rivoglitazone
Conditions: in vivo
observed.property: bioavailability (%)
Numbers only, in %.

Specify bioavailability for COc1ccc2nc(COc3ccc(CC4SC(=O)NC4=O)cc3)n(C)c2c1.Cl (racemic) and stop. 98.1

* * *

Test: Drug excretion in F344/DuCrlCrlj rat bile treated with [14C]rivoglitazone at 1 mg/kg, po administered via gavage measured during 0 to 48 hrs by radio-HPLC analysis
Format: ADME, organism-based
Design: dose 1 mg/kg, dosed compound name [14C]Rivoglitazone, route oral
Conditions: in vivo
observed.property: Compound recovery (%)
Numbers only, in %.

Examples with their reported Compound recovery follow.
Specify Compound recovery for Cn1c(COc2ccc(CC3SC(=O)NC3=O)cc2)nc2ccc(OS(=O)(=O)O)cc21 (stereo not drawn) and stop. 23

Specify Compound recovery for COc1ccc2nc(COc3ccc(CC4SC(=O)N([C@@H]5O[C@H](C(=O)O)[C@@H](O)[C@H](O)[C@H]5O)C4=O)cc3)n(C)c2c1 (stereo partly drawn) and stop. 1

Specify Compound recovery for COc1ccc2nc(COc3ccc(CC(C(N)=O)[S+](C)[O-])cc3)n(C)c2c1 (stereo not drawn) and stop. 0.6

Specify Compound recovery for CSC(Cc1ccc(OCc2nc3ccc(O[C@@H]4O[C@H](C(=O)O)[C@@H](O)[C@H](O)[C@H]4O)cc3n2C)cc1)C(N)=O (stereo partly drawn) and stop. 2.8

Specify Compound recovery for Cn1c(COc2ccc(CC(C(N)=O)[S+](C)[O-])cc2)nc2ccc(OS(=O)(=O)O)cc21 (stereo not drawn) and stop. 3.8

Provide Compound recovery for all items below, preserving their order.
1. Cn1c(COc2ccc(CC(C(N)=O)S(C)(=O)=O)cc2)nc2ccc(OS(=O)(=O)O)cc21 (stereo not drawn)
2. COc1ccc2nc(COc3ccc(CC(C(N)=O)S(C)(=O)=O)cc3)n(C)c2c1 (stereo not drawn)
3. Cn1c(COc2ccc(CC3SC(=O)NC3=O)cc2)nc2ccc(O[C@@H]3O[C@H](C(=O)O)[C@@H](O)[C@H](O)[C@H]3O)cc21 (stereo partly drawn)

1. 1.3
2. 1
3. 1.5
